Where do the numbers come from? From paper PMC12040169.

- test.method.notes: in vitro
- measurement.conditions: human, hela cells, % viability
observation.type: viability at 28.5 h, 10 µM (%)
The reply should contain only the number, in %.

O=c1c2scc(-c3cccc(F)c3)c2ncn1Cc1ccc(F)cc1    100
CCN(CCN(C)C)Cc1ccc(F)cc1F    93.1
Cc1ccc(Cl)cc1NC(=O)c1cc(NC(=O)C2C3C=CC(C3)C2C(=O)O)ccc1N1CCCCC1 (stereo not shown)    85.9
COc1ccc(CN(CCCN2CCOCC2)C(=O)NCCCN2CCCC2=O)cc1OC    93.2
CC1CN(CCNCc2cn(C)nc2-c2cccnc2)CC(C)O1 (stereo not shown)    110
CCN1CCC(Oc2nccnc2OCc2cc(C)on2)CC1 [CBK082962T]    94.7
Cn1cc(-c2nccnc2OC(c2ccccc2)c2ccccc2)cn1    103
COc1ccc(CC(=O)Nc2ccc(S(N)(=O)=O)cc2)cc1OC    92
COCCNC(=O)Cn1c(-c2ccco2)cc2cccnc21    80.6
Cc1ccnc(SCc2cc(=O)c3c(=O)n(-c4ccccc4)[nH]c3[nH]2)n1    110

Quick one: viability at 28.5 h, 10 µM of `COCCNc1nc(-c2ccccc2OC)ccc1C(=O)NCCNC(C)=O` ?
100

Requested read-out: viability at 28.5 h, 10 µM. Entry: `CCN(NC(=O)c1cc2cccc(OC)c2o1)c1ccc(C)cc1`
106

What measured viability at 28.5 h, 10 µM goes with CC(C)(CN)CN(Cc1ccccc1C(F)(F)F)C(=O)Nc1ccc(Cl)cc1Cl [CBK026832C] ?
93.5

Item under review: `C=CCNC(=O)C1(Cc2ccccc2-c2ccncc2)CCOCC1` . Reported viability at 28.5 h, 10 µM?
102

I would be grateful if you could share the reported viability at 28.5 h, 10 µM for `Cc1ccccc1-c1cncc(C2CCN(C(=O)CCOc3ccccc3)CC2)n1` .
99

// viability at 28.5 h, 10 µM lookup, key: `C[C@@H]1CN(C(=O)c2ccc3[nH]nnc3c2)C[C@H](C)O1`
104

Param item = `CC(C)CCn1c(=S)[nH]c2c(oc3ccccc32)c1=O` ; retrieve measured viability at 28.5 h, 10 µM.
100

Would you kindly share the measured viability at 28.5 h, 10 µM for `CC(=O)Nc1ccccc1NC(=O)CCCN1C(=O)CCC1=O` ?
92.8

Reported viability at 28.5 h, 10 µM for `Cc1c(NC(=O)c2cn3c4c(c(N5CCN(C)CC5)c(F)cc4c2=O)OCN3C)c(=O)n(-c2ccccc2)n1C` : what is it?
92.9

Query: viability at 28.5 h, 10 µM; subject: `O=C(O)c1ccccc1C(=O)Nc1ccc(Oc2cccc3ccccc23)cc1`
84.9

Can you look up the measured viability at 28.5 h, 10 µM of `Oc1ccc(/N=N/c2cccc(Br)c2)cc1/C=N/c1ccc(-c2nc3ncccc3o2)cc1` for me?
85.9

I would be grateful if you could share the reported viability at 28.5 h, 10 µM for Cc1nc(C2(O)CCCN(C3CCCC3)CC2)sc1COc1ccc(F)c(F)c1 (stereo not shown) .
89.7

# viability at 28.5 h, 10 µM lookup, item `COc1ccc(CN2Cc3nc[nH]c3C[C@H]2C(=O)N2CCC(Cc3ccccc3)CC2)cc1`
110

Fill blank: measured viability at 28.5 h, 10 µM of the compound `Cc1ccc(S(=O)(=O)Nc2ccc3c(ccn3CCC3CCN(C(=O)OC(C)(C)C)CC3)c2)cc1Cl` is ____.
94.6

Data request, read-out viability at 28.5 h, 10 µM, for `O=C(O)c1cc(-n2c(S)nnc2-c2ccc3ccccc3n2)ccc1Cl`
86.1

Tell me the measured viability at 28.5 h, 10 µM of CC1CCC(NC(=O)CN2C3CCC2CC(O)(c2ccco2)C3)CC1 (stereo not shown) , please.
91
